- target: GABA-A receptor; alpha-3/beta-3/gamma-2 (Homo sapiens, UniProt P18507+P28472+P34903)
- Sequence (P18507 whole entry): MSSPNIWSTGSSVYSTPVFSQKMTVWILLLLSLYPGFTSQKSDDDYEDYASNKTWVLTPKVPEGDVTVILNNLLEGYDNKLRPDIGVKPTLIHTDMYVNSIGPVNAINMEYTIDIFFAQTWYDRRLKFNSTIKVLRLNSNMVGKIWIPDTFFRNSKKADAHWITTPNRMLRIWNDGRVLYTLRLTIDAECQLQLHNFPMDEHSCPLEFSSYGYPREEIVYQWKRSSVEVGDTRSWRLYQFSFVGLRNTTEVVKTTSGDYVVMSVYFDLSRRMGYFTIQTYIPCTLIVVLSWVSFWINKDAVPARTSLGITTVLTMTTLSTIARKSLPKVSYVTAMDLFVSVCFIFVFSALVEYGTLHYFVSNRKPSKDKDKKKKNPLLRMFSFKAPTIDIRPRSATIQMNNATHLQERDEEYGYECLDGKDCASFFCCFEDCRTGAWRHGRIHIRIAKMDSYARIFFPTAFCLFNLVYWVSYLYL
- Sequence (P28472 whole entry): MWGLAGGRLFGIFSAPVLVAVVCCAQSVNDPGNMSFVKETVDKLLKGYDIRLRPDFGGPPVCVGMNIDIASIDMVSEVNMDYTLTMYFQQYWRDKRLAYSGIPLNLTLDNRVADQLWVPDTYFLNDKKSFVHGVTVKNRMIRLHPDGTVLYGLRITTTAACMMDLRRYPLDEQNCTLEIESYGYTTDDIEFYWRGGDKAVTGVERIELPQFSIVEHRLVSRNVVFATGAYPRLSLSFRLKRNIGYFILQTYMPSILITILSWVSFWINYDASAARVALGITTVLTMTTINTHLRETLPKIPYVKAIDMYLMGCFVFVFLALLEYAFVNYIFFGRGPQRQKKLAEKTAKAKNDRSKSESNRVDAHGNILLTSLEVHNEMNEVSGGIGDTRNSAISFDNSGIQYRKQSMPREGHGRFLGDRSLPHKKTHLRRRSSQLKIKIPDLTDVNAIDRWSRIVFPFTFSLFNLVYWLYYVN
- Sequence (P34903 whole entry): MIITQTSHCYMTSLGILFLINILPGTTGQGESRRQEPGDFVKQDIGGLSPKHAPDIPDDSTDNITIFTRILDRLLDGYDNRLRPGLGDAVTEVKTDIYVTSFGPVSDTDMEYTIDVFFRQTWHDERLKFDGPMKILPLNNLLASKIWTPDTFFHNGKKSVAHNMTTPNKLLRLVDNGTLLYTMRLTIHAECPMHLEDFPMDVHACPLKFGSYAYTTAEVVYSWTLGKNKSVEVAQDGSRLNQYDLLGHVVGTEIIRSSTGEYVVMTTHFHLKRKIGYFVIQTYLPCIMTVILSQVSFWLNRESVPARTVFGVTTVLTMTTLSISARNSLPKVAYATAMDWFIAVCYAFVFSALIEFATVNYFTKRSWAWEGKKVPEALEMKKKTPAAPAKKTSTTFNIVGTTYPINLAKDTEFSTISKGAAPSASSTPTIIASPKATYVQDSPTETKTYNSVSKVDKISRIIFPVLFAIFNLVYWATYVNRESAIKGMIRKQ
- assay: Inhibition of [3H]Ro-151788 binding to recombinant human gamma-aminobutyric-acid A receptor alpha-3-beta-3-gamma-2 subtype expressed in L (tk-) cells
Readings of Ki for the listed compounds
metric_name: Ki (nM)

compound	value_modifier	reported_result
c1ccc(-c2nnc3c4c(c(OCc5ccsc5)nn23)C2CCC4CC2)cc1	>	500
c1ccc(-c2nnc3c4c(c(OCc5cccnn5)nn23)C2CCC4CC2)cc1	=	8.5
c1ccc(-c2nnc3c4c(c(OCc5nccc6ccccc56)nn23)C2CCC4CC2)cc1	=	4.5
N#Cc1cccc(COc2nn3c(-c4ccccc4)nnc3c3c2C2CCC3CC2)c1	=	66
COc1cccc(-c2nnc3c4c(c(OCc5ccccn5)nn23)C2CCC4CC2)c1	=	29
COCCOc1cccnc1COc1nn2c(-c3ccccc3)nnc2c2c1C1CCC2CC1	=	3.9
Cc1cnc(COc2nn3c(-c4ccccc4)nnc3c3c2C2CCC3CC2)s1	=	24
Cc1csc(-c2nnc3c4c(c(OCc5ccccn5)nn23)C2CCC4CC2)n1	=	100
Cc1scnc1COc1nn2c(-c3ccccc3)nnc2c2c1C1CCC2CC1	=	12
Cn1ncnc1COc1nn2c(-c3ccccc3)nnc2c2c1C1CCC2CC1	=	2.8
N#Cc1ccc(COc2nn3c(-c4ccccc4)nnc3c3c2C2CCC3CC2)cc1	=	70
c1ccc(-c2nnc3c4c(c(OCc5ccncc5)nn23)C2CCC4CC2)cc1	=	13
CN(C(=O)COc1nn2c(-c3ccccc3)nnc2c2c1C1CCC2CC1)c1ccccc1	=	41
c1ccc(COc2nn3c(-c4ccco4)nnc3c3c2C2CCC3CC2)nc1	=	53
c1ccc(-c2nnc3c4c(c(OCc5ccccn5)nn23)C2CCC4CC2)cc1	=	13
c1ccc(-c2nnc3c4c(c(OCc5ncccc5OCC5CC5)nn23)C2CCC4CC2)cc1	=	2.3
O=C1CCC(COc2nn3c(-c4ccccc4)nnc3c3c2C2CCC3CC2)N1 (stereo unspecified)	=	260
c1ccc(COc2nn3c(-c4ccsc4)nnc3c3c2C2CCC3CC2)nc1	=	38
Cc1nnc2ccc(-c3cccc(C(F)(F)F)c3)nn12	=	850
Cc1cc(C)n(COc2nn3c(-c4ccccc4)nnc3c3c2C2CCC3CC2)n1	=	2.3
Cc1csc(COc2nn3c(-c4ccccc4)nnc3c3c2C2CCC3CC2)n1	=	30

====

- target: GABA-A receptor; alpha-5/beta-3/gamma-2 (Homo sapiens, UniProt P18507+P28472+P31644)
- assay: Inhibition of [3H]Ro-151788 binding to recombinant human gamma-aminobutyric-acid A receptor alpha-5-beta-3-gamma-2 subtype expressed in L (tk-) cells
pKi: −log10 of the molar value.
Listing of recorded pKi by entry.
metric_name: pKi

compound	target	value_modifier	reported_result
CN1CCCCC1COc1nn2c(-c3ccccc3)nnc2c2c1C1CCC2CC1 (stereo not given)	GABA-A receptor; alpha-5/beta-3/gamma-2 (Homo sapiens, UniProt P18507+P28472+P31644)	<	6.00
COc1ccc(-c2nnc3c4c(c(OCc5ccccn5)nn23)C2CCC4CC2)cc1	GABA-A receptor; alpha-5/beta-3/gamma-2 (Homo sapiens, UniProt P18507+P28472+P31644)	=	8.38
COCCOc1cccnc1COc1nn2c(-c3ccccc3)nnc2c2c1C1CCC2CC1	GABA-A receptor; alpha-5/beta-3/gamma-2 (Homo sapiens, UniProt P18507+P28472+P31644)	=	9.30
OCC1CCC(COc2nn3c(-c4ccccc4)nnc3c3c2C2CCC3CC2)CC1 (stereo in doubt)	GABA-A receptor; alpha-5/beta-3/gamma-2 (Homo sapiens, UniProt P18507+P28472+P31644)	=	7.06
Cc1cccc(-c2nnc3c4c(c(OCc5ccccn5)nn23)C2CCC4CC2)c1	GABA-A receptor; alpha-5/beta-3/gamma-2 (Homo sapiens, UniProt P18507+P28472+P31644)	=	7.77
c1ccc(-c2nnc3c4c(c(OCc5cccnn5)nn23)C2CCC4CC2)cc1	GABA-A receptor; alpha-5/beta-3/gamma-2 (Homo sapiens, UniProt P18507+P28472+P31644)	=	9.06
COc1ccccc1-c1nnc2c3c(c(OCc4ccccn4)nn12)C1CCC3CC1	GABA-A receptor; alpha-5/beta-3/gamma-2 (Homo sapiens, UniProt P18507+P28472+P31644)	=	6.77
c1ccc(-c2nnc3c4c(c(OCc5ncccc5OCC5CC5)nn23)C2CCC4CC2)cc1	GABA-A receptor; alpha-5/beta-3/gamma-2 (Homo sapiens, UniProt P18507+P28472+P31644)	=	9.12
c1ccc(-c2nnc3c4c(c(OCn5cccn5)nn23)C2CCC4CC2)cc1	GABA-A receptor; alpha-5/beta-3/gamma-2 (Homo sapiens, UniProt P18507+P28472+P31644)	=	8.57
c1ccc(-c2nnc3c4c(c(OCc5ccc6c(c5)OCO6)nn23)C2CCC4CC2)cc1	GABA-A receptor; alpha-5/beta-3/gamma-2 (Homo sapiens, UniProt P18507+P28472+P31644)	<	6.30

====

- target: GABA-A receptor; alpha-2/beta-3/gamma-2 (Homo sapiens, UniProt P18507+P28472+P47869)
- assay: Inhibition of [3H]Ro-151788 binding to recombinant human gamma-aminobutyric acid A receptor alpha-2-beta-3-gamma-2 subtype expressed in L (tk-) cells
pKi: −log10 of the molar value.
Record met whenever pKi is at 7 or higher; record not met when lower.

compound	class_label
Cc1ccccc1-c1nnc2c3c(c(OCc4ccccn4)nn12)C1CCC3CC1	not met
c1ccc(-c2nnc3c4c(c(OCc5ncccc5OC5CCC5)nn23)C2CCC4CC2)cc1	met
CN1CCCC(COc2nn3c(-c4ccccc4)nnc3c3c2C2CCC3CC2)C1 (stereo unspecified)	not met
CCO[n+]1ccccc1Oc1nn2c(-c3ccccc3)nnc2c2c1C1CCC2CC1	not met
Cc1cc(C)n(COc2nn3c(-c4ccccc4)nnc3c3c2C2CCC3CC2)n1	met
COCCOc1cccnc1COc1nn2c(-c3ccccc3)nnc2c2c1C1CCC2CC1	met
Cc1scnc1COc1nn2c(-c3ccccc3)nnc2c2c1C1CCC2CC1	met
Cc1csc(COc2nn3c(-c4ccccc4)nnc3c3c2C2CCC3CC2)n1	met
Cc1ccc(C)c(COc2nn3c(-c4ccccc4)nnc3c3c2C2CCC3CC2)n1	met
Cc1cccc(COc2nn3c(-c4ccccc4)nnc3c3c2C2CCC3CC2)n1	met
N#Cc1cccc(COc2nn3c(-c4ccccc4)nnc3c3c2C2CCC3CC2)c1	not met
Cc1noc(COc2nn3c(-c4ccccc4)nnc3c3c2C2CCC3CC2)n1	not met
Cc1ccc(COc2nn3c(-c4ccccc4)nnc3c3c2C2CCC3CC2)nc1	met
c1ccc(-c2nnc3c4c(c(OCc5ccncn5)nn23)C2CCC4CC2)cc1	met
CN1CCCCC1COc1nn2c(-c3ccccc3)nnc2c2c1C1CCC2CC1 (stereo unspecified)	not met
c1ccc(-c2nnc3c4c(c(OCn5cccn5)nn23)C2CCC4CC2)cc1	met
